- test-method-notes: Binding affinity to Triton-X 100 assessed as change in chemical shift at 150 uM by 1H-NMR spectra analysis
Activity calls are given as the source filed them. No cut-off for these calls is given here.
Pick from active, inactive when you respond.

Input: Test call for this compound, please: "O=C(O)c1cc(-c2ccc(F)cc2F)ccc1O"
Output: active

Input: Test call for this compound, please: Clc1ccc(COC(Cn2ccnc2)c2ccc(Cl)cc2Cl)c(Cl)c1 (configuration not stated)
Output: active

Input: Test call for this compound, please: "O=S(=O)(O)c1cccc2cccc(Nc3ccccc3)c12"
Output: active

Input: Test call for this compound, please: "Clc1ccccc1C(c1ccccc1)(c1ccccc1)n1ccnc1"
Output: active

Input: Test call for this compound, please: "O=C(OCc1ccccc1)c1ccccc1"
Output: active

More entries:
Input: Test call for this compound, please: "Nc1nnc(-c2cccc(Cl)c2Cl)c(N)n1"
Output: inactive

Input: Test call for this compound, please: COC(=O)C1=C(C)NC(C)=C(C(=O)OCCN(C)Cc2ccccc2)C1c1cccc([N+](=O)[O-])c1 (configuration not stated)
Output: active

Values were extracted from ChEMBL document CHEMBL4396878.
